- STUDY SYSTEM: Cathepsin K (Homo sapiens)
- Sequence (P43235 115-329, species assumed): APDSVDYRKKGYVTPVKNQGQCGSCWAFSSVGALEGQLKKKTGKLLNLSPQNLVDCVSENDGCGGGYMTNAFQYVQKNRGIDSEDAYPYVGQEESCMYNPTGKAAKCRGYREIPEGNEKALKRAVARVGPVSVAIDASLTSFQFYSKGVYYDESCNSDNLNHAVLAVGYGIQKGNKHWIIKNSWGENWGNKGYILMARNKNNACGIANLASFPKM
- RUN DESCRIPTION: in vitro fluorescence-based protease inhibition assay, cathepsin K
- Format: biochemical
- TEST SETTINGS: Table 4, calpain inhibitors
pKi: −log10 of the molar value. Starred links: 1 amine or outer side, 2 acyl side, 3 side chain; linkers in the order of their positions; H or OH if unused. Positions of bridges follow the written chain, without caps; N, C: chain ends. Residues, ends and D or L forms follow the SMILES beside them. mXylylene = c1cc(C[*:1])cc(C[*:2])c1
QUANTITY: pKi

# annotated cases, reported pKi shown
[[record]]
molecule = "CC[C@H](C)[C@H](N)C(=O)N1CCC[C@H]1C(=O)N1CCC[C@H]1C(=O)N[C@@H](CCCCN)C(=O)N[C@@H](Cc1ccc(O)cc1)C(=O)N[C@H]1CSCc2cccc(c2)CSC[C@@H](C(=O)O)NC(=O)[C@H](CC(C)C)NC(=O)[C@H](CC(C)C)NC(=O)[C@H](CCC(=O)O)NC1=O [compound 65]"
study_system = "Cathepsin K (Homo sapiens)"
quantity = "pKi"
readout_value = "< 4.00"

[[record]]
molecule = "CC[C@H](C)[C@H](N)C(=O)N1CCC[C@H]1C(=O)N1CCC[C@H]1C(=O)N[C@@H](CCCNC(=N)N)C(=O)N[C@@H](Cc1ccc(O)cc1)C(=O)N[C@H]1CSCc2cccc(c2)CSC[C@@H](C(=O)O)NC(=O)[C@H](CC(C)C)NC(=O)[C@H](CC(C)C)NC(=O)[C@H](CCC(=O)O)NC1=O [compound 80] (H-IPPRYCELLC-OH; linker 6-10 via mXylylene; N-terminus and C-terminus assumed)"
study_system = "Cathepsin K (Homo sapiens)"
quantity = "pKi"
readout_value = "< 4.00"

[[record]]
molecule = "CC[C@H](C)[C@H](N)C(=O)N1CCC[C@H]1C(=O)N1CCC[C@H]1C(=O)N[C@@H](CCCCN)C(=O)N[C@@H](Cc1ccc(O)cc1)C(=O)N[C@H]1CSCc2cccc(c2)CSC[C@@H](C(=O)O)NC(=O)[C@H](CC(C)C)NC(=O)[C@H](CCC(N)=O)NC(=O)[C@H](CCC(=O)O)NC1=O [compound 85] (H-IPPKYCEQLC-OH; linker 6-10 via mXylylene; N-terminus and C-terminus assumed)"
study_system = "Cathepsin K (Homo sapiens)"
quantity = "pKi"
readout_value = "< 4.00"


Could you share which pKi value was measured for CC(C)C[C@@H]1NC(=O)[C@H](CC(C)C)NC(=O)[C@H](CCC(=O)O)NC(=O)[C@@H](NC(=O)[C@H](Cc2ccc(O)cc2)NC(=O)[C@H](CCCCN)NC(=O)[C@@H]2CCCN2C(=O)[C@@H]2CCCN2C(=O)[C@@H](N)CC(C)C)CSCc2cccc(c2)CSC[C@@H](C(=O)O)NC1=O [compound 74] (H-LPPKYCELLC-OH; linker 6-10 via mXylylene; N-terminus and C-terminus assumed) ?
< 4.00
